Attribution: PubChem BioAssay AID1845205

- System: MPNST multicellular tumor spheroids, viability % test/control
- experiment_description: Anticancer human tumor MPNST cell line growth inhibition;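 also: luminescence signal used as surrogate for viable cell amount; spheroids exposed to agents for seven days after three days of growth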
- settings: second compound 0.003 µM; first compound 0.3 µM; active compounds read low
Attribute: viability, T/C

Example entries begin here.
# compound, measurement_kind, observed_measurement
measured = [
    ("O=C(c1cc(Cc2n[nH]c(=O)c3ccccc23)ccc1F)N1CCN(C(=O)C2CC2)CC1 + COc1cc2c(cc1O)CCNC21CSC2c3c(OC(C)=O)c(C)c4c(c3C(COC1=O)N1C(O)C3Cc5cc(C)c(OC)c(O)c5C(C21)N3C)OCO4", "viability, T/C", "7.5%"),
    ("Cc1sc2c(c1C)C(c1ccc(Cl)cc1)=NC(CC(=O)Nc1ccc(O)cc1)c1nnc(C)n1-2 (stereo not drawn) + CC[C@@]1(O)C(=O)OCc2c1cc1n(c2=O)Cc2cc3c(CN(C)C)c(O)ccc3nc2-1", "viability, T/C", "66.9%"),
    ("CNCc1ccc(-c2cc(-c3nc(-c4ccc(S(=O)(=O)C(C)C)cc4)cnc3N)on2)cc1 + COc1cc2c(cc1O)CCNC21CSC2c3c(OC(C)=O)c(C)c4c(c3C(COC1=O)N1C(O)C3Cc5cc(C)c(OC)c(O)c5C(C21)N3C)OCO4", "viability, T/C", "8.25%"),
    ("CNCc1ccc(-c2cc(-c3nc(-c4ccc(S(=O)(=O)C(C)C)cc4)cnc3N)on2)cc1 + CC[C@@]1(O)C(=O)OCc2c1cc1n(c2=O)Cc2cc3c(CN(C)C)c(O)ccc3nc2-1", "viability, T/C", "61.4%"),
    ("O=C(c1cc(Cc2n[nH]c(=O)c3ccccc23)ccc1F)N1CCN(C(=O)C2CC2)CC1 + CC[C@@]1(O)C(=O)OCc2c1cc1n(c2=O)Cc2cc3c(CN(C)C)c(O)ccc3nc2-1", "viability, T/C", "78%"),
]

Data request: Fill in: viability, T/C of Cn1ncnc1[C@H]1c2n[nH]c(=O)c3cc(F)cc(c23)N[C@@H]1c1ccc(F)cc1 + COc1cc2c(cc1O)CCNC21CSC2c3c(OC(C)=O)c(C)c4c(c3C(COC1=O)N1C(O)C3Cc5cc(C)c(OC)c(O)c5C(C21)N3C)OCO4 is ___
Data returned: 9.63%

Data request: Please look up its viability, T/C: Cc1sc2c(c1C)C(c1ccc(Cl)cc1)=NC(CC(=O)Nc1ccc(O)cc1)c1nnc(C)n1-2 (stereo not drawn) + COc1cc2c(cc1O)CCNC21CSC2c3c(OC(C)=O)c(C)c4c(c3C(COC1=O)N1C(O)C3Cc5cc(C)c(OC)c(O)c5C(C21)N3C)OCO4
Data returned: 1.41%

Data request: Any idea what its viability, T/C is? The compound is Cn1ncnc1[C@H]1c2n[nH]c(=O)c3cc(F)cc(c23)N[C@@H]1c1ccc(F)cc1 + CC[C@@]1(O)C(=O)OCc2c1cc1n(c2=O)Cc2cc3c(CN(C)C)c(O)ccc3nc2-1
Data returned: 68.7%
